biological target: T1, human ACVR2A (human, UniProt P27037 20-135, limits assumed); assay: ELISA; further: test concentration or dose not given here
T1 construct: coated antigen of the initial ELISA; also called activin receptor, type II A
T1 sequence (P27037 20-135 limits assumed): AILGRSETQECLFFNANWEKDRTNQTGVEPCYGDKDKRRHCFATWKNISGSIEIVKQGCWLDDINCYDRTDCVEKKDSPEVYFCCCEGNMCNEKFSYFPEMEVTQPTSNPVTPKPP
The binders listed here are annotated with their optical density.
The answer is to be given in OD; state only the numeric part.

- binder: "372_C06 (antibody, V domains shown, Group III) VH: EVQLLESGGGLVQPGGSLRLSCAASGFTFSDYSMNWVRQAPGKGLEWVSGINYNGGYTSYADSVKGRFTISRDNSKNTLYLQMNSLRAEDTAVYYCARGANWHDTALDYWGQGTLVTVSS VL: DIQMTQSPSSLSASVGDRVTITCRASQSIVSYVNWYQQKPGKAPKLLIYAATSRASGVPSRFSGSGSGTDFTLTISSLQPEDFATYYCQQSYSSPLTFGGGTKVEIK"
  optical density [OD]: 3.21
- binder: "370_B11 (antibody, V domains shown, Group III) VH: EVQLLESGGGLVQPGGSLRLSCAASGFTFDSYSMNWVRQAPGKGLEWVSGINYNSGYTSYADSVKGRFTISRDNSKNTLYLQMNSLRAEDTAVYYCARGANWHDTHLDYWGQGTLVTVSS VL: DIQMTQSPSSLSASVGDRVTITCRASQSILSYLNWYQQKPGKAPKLVIYAATSRHSGVPSRFSGSGSGTDFTLTISSLQPEDFATYYCQQGYDLPLTFGGGTKVEIK"
  optical density [OD]: 2.08
- binder: "370_A02 (antibody, V domains shown, Group III) VH: EVQLLESGGGLVQPGGSLRLSCAASGFTFDSYGMNWVRQAPGKGLEWVAGINYNGGYTGYADSVKGRFTISRDNSKNTLYLQMNSLRAEDTAVYYCARGANWHDTALDYWGQGTLVTVSS VL: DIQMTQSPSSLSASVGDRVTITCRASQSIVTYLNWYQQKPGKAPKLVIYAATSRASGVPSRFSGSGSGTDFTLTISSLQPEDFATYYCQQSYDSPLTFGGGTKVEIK"
  optical density [OD]: 2.9
- binder: "367_D06 (antibody, V domains shown, Group III) VH: EVQLLESGGGLVQPGGSLRLSCAASGFTFDSYSMNWVRQAPGKGLEWVAGINYNGGYTSYADSVKGRFTISRDNSKNTLYLQMNSLRAEDTAVYYCARGANWHDTHLDYWGQGTLVTVSS VL: DIQMTQSPSSLSASVGDRVTITCRASQSISTYLNWYQQKPGKAPKLVIYAATSLASGVPSRFSGSGSGTDFTLTISSLQPEDFATYYCQQSYNSPLTFGGGTKVEIK"
  optical density [OD]: 2.04
- binder: "375_F02 (antibody, V domains shown, Group III) VH: EVQLLESGGGLVQPGGSLRLSCAASGFTFSSYSMNWVRQAPGKGLEWVASINYNSGYTSYADSVKGRFTISRDNSKNTLYLQMNSLRAEDTAVYYCARGANWHDTHLDYWGQGTLVTVSS VL: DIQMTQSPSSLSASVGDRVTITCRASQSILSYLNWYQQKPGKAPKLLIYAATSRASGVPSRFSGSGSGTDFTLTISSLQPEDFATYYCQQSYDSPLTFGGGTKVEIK"
  optical density [OD]: 3.6
- binder: "374_B05 (antibody, V domains shown, Group III) VH: EVQLLESGGGLVQPGGSLRLSCAASGFTFDSYSMNWVRQAPGKGLEWVSGINYNSGYTSYADSVKGRFTISRDNSKNTLYLQMNSLRAEDTAVYYCARGANWHDTALDYWGQGTLVTVSS VL: DIQMTQSPSSLSASVGDRVTITCRASQSIVSYLNWYQQKPGKAPKLLIYAATSRHSGVPSRFSGSGSGTDFTLTISSLQPEDFATYYCQQSYESPLTFGGGTKVEIK"
  optical density [OD]: 3.68

Form field optical density, entry 368_H02 (antibody, V domains shown, Group III) VH: EVQLLESGGGLVQPGGSLRLSCAASGFTFSSYGMNWVRQAPGKGLEWVAGINYNSGYTSYADSVKGRFTISRDNSKNTLYLQMNSLRAEDTAVYYCARGANWHDTALDYWGQGTLVTVSS VL: DIQMTQSPSSLSASVGDRVTITCRASQSIVTYLNWYQQKPGKAPKLVIYAATSRASGVPSRFSGSGSGTDFTLTISSLQPEDFATYYCQQSYESPLTFGGGTKVEIK : 2.41
